B1: FADS1 (parent)
chain: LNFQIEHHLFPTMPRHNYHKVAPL

Variants of: B1
Assay: protein stability index of a GFP-peptide fusion (GPS, HEK-293T) (PSI 1-6); higher = more stable;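 further: lentivirally expressed fusions sorted by FACS into six bins by GFP to DsRed ratio, PSI derived from sequencing read proportions per bin multiplied by bin number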
Conditions: c terminus: a fixed tail appended
property_measured: protein stability index

query: What measured protein stability index goes with N17W ?
result: 2.84

query: Given Y18P , state its recorded protein stability index.
result: 2.99

query: Query (variant): V21S ; field requested: protein stability index
result: 1.98

query: # input variant: R15Q ; wanted: its protein stability index
result: 1.33

query: I would be grateful if you could share the reported protein stability index for H7T .
result: 2.82

query: So what does the record say about protein stability index for E6M ?
result: 2.24

query: Suppose we examine the variant I5K ; what protein stability index value has been reported?
result: 2.06

query: Please report the recorded protein stability index for K20Q .
result: 3.36

query: What value of protein stability index has been reported for the following variant? I5M
result: 1.63

query: What does the data say about its protein stability index? Entry: P14N
result: 3.36

query: Could you tell me which protein stability index is on file for I5Q ?
result: 1.83

query: Look up protein stability index: A22V
result: 2.82

query: Any idea what protein stability index was measured for N17P ?
result: 2.71

query: Bench note: what protein stability index did A22F show?
result: 1.78

query: Please report the recorded protein stability index for P23E .
result: 2.21

query: Request the reported protein stability index associated with K20M
result: 2.3

query: // protein stability index lookup, key: Y18S
result: 1.69

query: Requested field: protein stability index. Item: F3L
result: 1.73

query: Looking for the measured protein stability index of Q4E , can you help?
result: 2.25

query: # lookup: protein stability index of V21Y
result: 1.94

query: Query: protein stability index; subject: H8L
result: 2.44

query: So what does the record say about protein stability index for N2L ?
result: 3.82

Measured values drawn from the supplement of paper PMC10567573 for this set.
